# System: Plasmodium falciparum
# assay notes: Screen against P. falciparum Asexual Blood Stage (ABS), at 5uM
# Type: functional, Dd2
# assay setup: tested at 5 uM
About 2,100 (3.2%) of roughly 65,000 compounds showed an effect of 50% or more. The median lay at about -52%. The sample holds strong results, similar compounds and a random draw of the others, so the mix is not that of the screen.
metric name: INHIBITION (%)
Answer in %, number only, no unit symbol.

>  <compound>
O=C(Nc1cccc(F)c1)C1CCCN1c1nccs1 (stereo unspecified)

>  <metric name>
INHIBITION

>  <recorded measurement>
-77.8

$$$$

Ask | Bench note: what INHIBITION did `CCN(CC)c1ccc(NS(=O)(=O)c2cncc(F)c2)cn1` show?
Reply | -19.4

Ask | Entry O=C(Nc1cccc(N2CCCC2)c1)C1CCCN1c1nccs1 (stereo unspecified) please
Reply | -129

Ask | Entry `Cc1nnc(N2CC[C@H](OCC3CC3)[C@@H](Cc3ccccc3)C2)s1` please
Reply | -3.27

Ask | Entry COc1ccc(OC)c(C2CCN(C3CCOCC3)C2)c1 (stereo unspecified) please
Reply | -74.2

Ask | Entry COc1ccc(CC2CN(C3CCSCC3)CCO2)cc1 (stereo unspecified) please
Reply | -96.7

###

# System: Plasmodium falciparum
# assay notes: Screen against P. falciparum Asexual Blood Stage (ABS), at 5uM
# Format: functional, Dd2
# assay setup: tested at 5 uM
Screen size: about 65,000 compounds; about 2,100 (3.2%) showed an effect of 50% or more. The median lay at about -52%. Shown is part of a subset that was picked to be rich in strong results.
metric name: INHIBITION (%)
Answer in %, number only, no unit symbol.

Ask | Bench note: what INHIBITION did CN(C)C(C(=O)N1CC(Oc2ccccc2F)C1)c1ccc(F)cc1 (configuration not stated) show?
Reply | 64

Ask | Entry CN(C)CCn1ccnc1C1CCCN(c2nccc3ccccc23)C1 (configuration not stated) please
Reply | 57.4

Ask | Entry `COc1ccc(-c2csc3c2c(N)nc(=O)n3CCN(C)C)cc1` please
Reply | -27.7

Ask | Entry `Cc1nc2ccn(C(C)C)c(=O)c2cc1C(=O)O` please
Reply | -39.7

Ask | Entry `Cn1nc(CNC(=O)c2ccc3nsnc3c2)c2c1CCOC2` please
Reply | -37.5

###

Catalogue of compounds with associated INHIBITION
# Test system: Plasmodium falciparum
# assay notes: Screen against P. falciparum Asexual Blood Stage (ABS), at 5uM
# Format: functional, Dd2
# assay setup: tested at 5 uM
Screen size: about 65,000 compounds; about 2,100 (3.2%) showed an effect of 50% or more. The median lay at about -52%. The sample holds strong results, similar compounds and a random draw of the others, so the mix is not that of the screen.
Answer in %, number only, no unit symbol.

>  <compound>
COc1cc(F)c(NC(=O)N(C)Cc2cc(C)on2)cc1F

>  <value unit>
%

>  <recorded measurement>
-69.1

$$$$
>  <compound>
O=C(C1CCCC1)N1CCOC(c2nc(-c3ncccn3)no2)C1 (stereo not drawn)

>  <value unit>
%

>  <recorded measurement>
-66.9

$$$$

Ask | Bench note: what INHIBITION did `Cc1[nH]/c(=N\C(=O)c2csc(NC3CCCC3)n2)sc1C` show?
Reply | 50

Ask | Entry `CCOCC(=O)NCC1CCN(Cc2ccsc2)CC1` please
Reply | -90.6

Ask | Entry `COCC(=O)N1C[C@@H]2CCCO[C@@H]2[C@H](N(C)Cc2ccco2)C1` please
Reply | -22.6

Ask | Entry `CN1CCC(Oc2ccc(-n3ccnc3-c3nccn3C)cc2)CC1` please
Reply | -33.1

Ask | Entry OC(c1ccccc1)C1CCN(Cc2csc(-c3ncccn3)n2)CC1 (stereo not drawn) please
Reply | -49.1

Ask | Entry `CCC1=N[C@@]2(CC[C@@H]3CN(C(=O)NCc4ccccc4C)C[C@@H]32)C(=O)N1` please
Reply | -16

Ask | Entry `CC(=O)N1CCC(c2ccnc(Nc3cncnc3)n2)CC1` please
Reply | -18.6

Ask | Entry CC(=O)N1CCCC1c1cccc(NCc2ccccc2F)n1 (stereo not drawn) please
Reply | -133

Ask | Entry CC(=O)N1CCCC1c1ccnc(Nc2cncnc2)n1 (stereo not drawn) please
Reply | -101

Ask | Entry `Cc1ccc(-c2nccn2-c2ccc(OC3CCN(C)CC3)cc2)o1` please
Reply | 55.1

###

# System: Plasmodium falciparum
# assay notes: Screen against P. falciparum Asexual Blood Stage (ABS), at 5uM
# Type: functional, Dd2
# assay setup: tested at 5 uM
Among all 65,000 compounds or so, about 2,100 (3.2%) showed an effect of 50% or more. The median lay at about -52%. What follows is part of a selection rich in strong results, with near analogues and random picks from the rest.
metric name: INHIBITION (%)
Answer in %, number only, no unit symbol.

Answered cases to consult:
>  <molecule>
COCC1Cn2nnc(-c3cnn(C)c3)c2CN1Cc1ccoc1 (centres undefined)

>  <assayed target>
Plasmodium falciparum

>  <value unit>
%

>  <INHIBITION>
28.8

$$$$
>  <molecule>
Cc1[nH]c2ccc(C#N)cc2c1CCNc1ncnc2c1CCNCC2

>  <assayed target>
Plasmodium falciparum

>  <value unit>
%

>  <INHIBITION>
-19.3

$$$$
>  <molecule>
CN(C)CC(=O)N1CCC2(CC(=O)N(c3cccc(C#N)c3)C2)C1 (centres undefined)

>  <assayed target>
Plasmodium falciparum

>  <value unit>
%

>  <INHIBITION>
-30

$$$$
>  <molecule>
Cc1ccc(CN2CCN(c3cncc(N(C)C)n3)CC2=O)cc1C

>  <assayed target>
Plasmodium falciparum

>  <value unit>
%

>  <INHIBITION>
-30

$$$$
>  <molecule>
Cc1ccc(C(F)(F)F)cc1C(=O)N[C@H]1CN(CCO)C[C@@H]1C1CC1

>  <assayed target>
Plasmodium falciparum

>  <value unit>
%

>  <INHIBITION>
63.9

$$$$
>  <molecule>
Cc1cc(C)c(CNC(=O)N(C)Cc2ccc3c(c2)OCO3)c(=O)[nH]1

>  <assayed target>
Plasmodium falciparum

>  <value unit>
%

>  <INHIBITION>
-71.6

$$$$

Ask | Bench note: what INHIBITION did CC(NC1(CNS(C)(=O)=O)CCOCC1)c1ccccc1 (centres undefined) show?
Reply | 0.206

Ask | Entry `Cc1nc(N)sc1C(=O)N[C@H]1CN(CCO)C[C@@H]1C1CC1` please
Reply | -82.2

Ask | Entry `O=C(c1cnco1)N1CCC(Cc2cccc3ncccc23)CC1` please
Reply | -2.05

Ask | Entry `Cc1[nH]c2ccccc2c1CCNc1ncnc2c1CCNCC2` please
Reply | -68.4

Ask | Entry Cc1cnn(CC2CCN(CC(O)CN3CCC(C)CC3)CC2)c1 (centres undefined) please
Reply | 63.8

Ask | Entry `CSCCCN1C[C@H](NC(=O)c2ccc(CO)cc2)[C@@H](C2CC2)C1` please
Reply | 17.3

Ask | Entry `COc1ccc(NCC2(O)CCNCC2)cc1OC` please
Reply | -115

###

# System: Plasmodium falciparum
# assay notes: Screen against P. falciparum Asexual Blood Stage (ABS), at 5uM
# Assay type: functional, Dd2
# assay setup: tested at 5 uM
Among all 65,000 compounds or so, about 2,100 (3.2%) showed an effect of 50% or more. The median lay at about -52%. What follows is part of a selection rich in strong results, with near analogues and random picks from the rest.
Catalogue of compounds with associated INHIBITION

Answered cases to consult:
>  <compound>
CSc1ccc(CNc2n[nH]c(C)n2)cc1

>  <assayed target>
Plasmodium falciparum

>  <INHIBITION>
-43.7%

$$$$
>  <compound>
Cc1cc(C(=O)N2CCCC3(COCCN(CCN(C)C)C3)C2)no1 (stereo not given)

>  <assayed target>
Plasmodium falciparum

>  <INHIBITION>
-49.7%

$$$$
>  <compound>
CCn1ccnc1CN1CCN(CC(=O)NC2CCOCC2)CC1

>  <assayed target>
Plasmodium falciparum

>  <INHIBITION>
-29%

$$$$
>  <compound>
COc1cc(-c2cccc3c2OC(CN)C3)cc(OC)c1OC (stereo not given)

>  <assayed target>
Plasmodium falciparum

>  <INHIBITION>
46.9%

$$$$

Ask | Bench note: what INHIBITION did COc1cccc(C2CCCN2CCCNS(C)(=O)=O)c1 (stereo not given) show?
Reply | -0.589%

Ask | Entry CCOC(=O)C1CCN(C(=O)CN2CCCC2c2cc(C)no2)CC1 (stereo not given) please
Reply | -126%

Ask | Entry `CCn1ccnc1CN1CCN(CC(=O)NC(=O)NC2CC2)CC1` please
Reply | -97.3%

Ask | Entry `CS(=O)(=O)NC[C@]12COC[C@H]1CN(C(=O)C1CC(F)(F)C1)C2` please
Reply | -80.1%

Ask | Entry COc1cc(-c2ccc(F)c3c2OC(CN)C3)cc(OC)c1OC (stereo not given) please
Reply | -12.8%

Ask | Entry CS(=O)(=O)NCCCN1CCCC1c1ccsc1 (stereo not given) please
Reply | -73.1%

Source of measurements: ChEMBL document CHEMBL4513216
